B1: TOR1AIP2 (parent)
chain: YKYCDHENAAFKDVALVLTVLLEE

# Variants of: B1
# Method Description: protein stability index of a GFP-peptide fusion (GPS, HEK-293T) (PSI 1-6); higher = more stable;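 also: lentivirally expressed fusions sorted by FACS into six bins by GFP to DsRed ratio, PSI derived from sequencing read proportions per bin multiplied by bin number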
# Experimental Parameters: c terminus: a fixed tail appended
If the reported protein stability index equals or exceeds 3, assign label 1. If not, assign label 0.

| Polymer Sequence | Group Label |
| --- | --- |
| YKYCDLENAAFKDVALVLTVLLEE | label 0 |
| YKYCDHENAANKDVALVLTVLLEE | label 0 |
| YKYCDHENAAFKDVALVLTDLLEE | label 0 |
| YKYCDHENAAFKDVALVLTVLLHE | label 0 |
| YKYCDHERAAFKDVALVLTVLLEE | label 1 |
| YKYCDHENAAFKDVALVITVLLEE | label 1 |
| YKYCDHENAAFKDVALMLTVLLEE | label 0 |
| YKYCDHENAAFKCVALVLTVLLEE | label 0 |
| YKYCDHENQAFKDVALVLTVLLEE | label 1 |
| YKYCDIENAAFKDVALVLTVLLEE | label 0 |
| YKYCDHENAAYKDVALVLTVLLEE | label 0 |
| YKYCDHENAAFKDVALVLFVLLEE | label 0 |
| YKYCDHENAAGKDVALVLTVLLEE | label 1 |
| YKYCDHENAAFKDVALVLTVDLEE | label 0 |
| YKYCDHENAAIKDVALVLTVLLEE | label 0 |
| YKYCDHEYAAFKDVALVLTVLLEE | label 0 |
| TKYCDHENAAFKDVALVLTVLLEE | label 0 |
| YKYCDHENAAFKDVALVLTVLLEI | label 1 |
| PKYCDHENAAFKDVALVLTVLLEE | label 0 |
| YLYCDHENAAFKDVALVLTVLLEE | label 0 |
